study.system: human Werner helicase (WRN-BV08, Uniprot Q14191, amino acids 517-1235 with L1074F point mutation) (Homo sapiens, UniProt Q14191, L1074F)
Construct: Uniprot Q14191, amino acids 517-1235 with L1074F point mutation; TEV-cleavable 8×His (C, cleaved yes); made in house; host or cells: Sf9 insect cells (baculovirus)
Sequence (Q14191 with tags, fused parts or gaps L1074F limits assumed): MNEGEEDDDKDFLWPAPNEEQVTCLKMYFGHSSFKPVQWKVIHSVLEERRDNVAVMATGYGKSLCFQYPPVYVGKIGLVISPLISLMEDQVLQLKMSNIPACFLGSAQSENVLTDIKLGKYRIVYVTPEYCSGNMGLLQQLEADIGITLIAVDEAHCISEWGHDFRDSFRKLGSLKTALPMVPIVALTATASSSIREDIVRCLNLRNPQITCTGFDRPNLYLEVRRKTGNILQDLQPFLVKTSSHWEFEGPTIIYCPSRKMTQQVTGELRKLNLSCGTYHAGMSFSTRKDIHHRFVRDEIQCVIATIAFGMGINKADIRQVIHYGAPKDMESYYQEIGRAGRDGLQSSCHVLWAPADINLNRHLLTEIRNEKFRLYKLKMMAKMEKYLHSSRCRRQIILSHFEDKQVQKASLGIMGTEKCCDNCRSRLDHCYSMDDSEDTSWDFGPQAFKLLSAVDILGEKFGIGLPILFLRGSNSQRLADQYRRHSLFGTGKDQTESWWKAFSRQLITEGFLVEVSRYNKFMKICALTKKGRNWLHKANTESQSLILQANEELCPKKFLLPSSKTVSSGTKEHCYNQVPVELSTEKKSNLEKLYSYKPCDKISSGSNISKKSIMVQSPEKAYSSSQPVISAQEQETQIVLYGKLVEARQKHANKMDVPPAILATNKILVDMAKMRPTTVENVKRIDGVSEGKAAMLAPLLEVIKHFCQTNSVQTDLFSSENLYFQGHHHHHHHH
assay.remarks: WRN (BV08) ADP-Glo Assay
Type: biochemical
condition.parameters: 0.15 nM WRN, 5 μM ATP, 0.1 nM DNA duplex, 15 min preincubation, 60 min at 25° C., pH 7.5, 1% DMSO; read-out: ADP-Glo_hWRN_IC50
Listed here are compounds together with their documented IC50.

Consider the reported IC50 for these compounds:
| compound | IC50 |
| --- | --- |
| COc1cc(CN(C(=O)C(OCCC#N)c2ccc(-c3ccc(F)c(F)c3)cc2F)[C@@H]2C=CS(=O)(=O)C2)ccn1 (single isomer, unassigned) [I-736] | > 50 µM |
| O=C(Cc1ccc(S(F)(F)(F)(F)F)cc1)N(Cc1ccncc1)C1C=CS(=O)(=O)C1 (single isomer, unassigned) [I-51] | < 0.5 µM |

# IC50 of CC(C)(O)c1cc(CN(C(=O)Cc2ccc(C(F)(F)F)cc2)C2C=CS(=O)(=O)C2)ccn1 (stereo not shown) = 0.5 to 5 µM

# IC50 of CC(=O)Nc1ccc(CN(C(=O)Cc2ccc(-n3cccc3)cc2)C2C=CS(=O)(=O)C2)cc1 (stereo not shown) = 10 to 50 µM

# IC50 of CC(C)(O)c1cc(CN(C(=O)Cc2ccc(S(F)(F)(F)(F)F)cc2F)C2C=CS(=O)(=O)C2)ccn1 (stereo not shown) = < 0.5 µM

# IC50 of NS(=O)(=O)c1ccc(CN(C(=O)Cc2ccc(-n3cccc3)cc2)C2C=CS(=O)(=O)C2)cc1 (stereo not shown) = 0.5 to 5 µM

# IC50 of COc1cc(CN(C(=O)Cc2ccc(C3(C)CC3)cc2F)C2C=CS(=O)(=O)C2)ccn1 (stereo not shown) = 0.5 to 5 µM

* * *

Listed here are molecules together with their documented IC50.
study.system: human Werner helicase (WRN-BV08, Uniprot Q14191, amino acids 517-1235 with L1074F point mutation) (Homo sapiens, UniProt Q14191, L1074F)
Construct: Uniprot Q14191, amino acids 517-1235 with L1074F point mutation; TEV-cleavable 8×His (C, cleaved yes); made in house; host or cells: Sf9 insect cells (baculovirus)
assay.remarks: WRN (BV08) ADP-Glo Assay
Type: biochemical
condition.parameters: 0.15 nM WRN, 5 μM ATP, 0.1 nM DNA duplex, 15 min preincubation, 60 min at 25° C., pH 7.5, 1% DMSO; read-out: ADP-Glo_hWRN_IC50

# IC50 of O=C(C1Cc2cc(-c3ccc(F)cc3)ccc21)N(Cc1ccncc1)C1C=CS(=O)(=O)C1 (centres unmarked) = 5 to 10 µM

# IC50 of CC(C)c1ccc(CC(=O)N(Cc2ccnc(C(C)(C)O)c2)C2C=CS(=O)(=O)C2)cc1 (centres unmarked) = 0.5 to 5 µM

# IC50 of COc1cc(CN(C(=O)Cc2ccn(-c3ccc(Cl)cc3)n2)C2C=CS(=O)(=O)C2)ccn1 (centres unmarked) = > 50 µM

* * *

study.system: human Werner helicase (WRN-BV08, Uniprot Q14191, amino acids 517-1235 with L1074F point mutation) (Homo sapiens, UniProt Q14191, L1074F)
Construct: Uniprot Q14191, amino acids 517-1235 with L1074F point mutation; TEV-cleavable 8×His (C, cleaved yes); made in house; host or cells: Sf9 insect cells (baculovirus)
assay.remarks: WRN (BV08) ADP-Glo Assay
Assay type: biochemical
condition.parameters: 0.15 nM WRN, 5 μM ATP, 0.1 nM DNA duplex, 15 min preincubation, 60 min at 25° C., pH 7.5, 1% DMSO; read-out: ADP-Glo_hWRN_IC50
pIC50: −log10 of the molar value.
observable: pIC50

Consider the reported pIC50 for these compounds:
| compound | observed.value |
| --- | --- |
| Cn1cc2cc(CC(=O)N(Cc3ccncc3)C3C=CS(=O)(=O)C3)ccc2n1 (stereo not shown) | < 4.30 |
| COc1cc(CN(C(=O)C(OC)c2ccc(-c3ccc(F)cc3)cc2F)C2C=CS(=O)(=O)C2)ccn1 (single isomer, unassigned) [I-404] | < 4.30 |
| O=C(Cc1ccc(-n2cccc2)cc1)N(Cc1cc(F)cc(F)c1)C1C=CS(=O)(=O)C1 (stereo not shown) | < 4.30 |

// next entry
# pIC50 of O=C(Cc1ccc(-n2cccc2)cc1)N(Cc1nc(C2CC2)cs1)[C@@H]1C=CS(=O)(=O)C1 = > 6.30
